Measurement Target: human fibronectin (human) (UniProt P02751)
Test Description: solid-phase competition, 125I-fibronectin on coated fibronectin

{"Binder": "LISIQQYGHQEVTRFDFTTTSTSTPVTSNTV [polypeptide P3]", "IC50": "200 to 300 µM"}

The origin of these recorded values is patent US5837813.
